The measured values listed here are drawn from paper PMC3093368.

# metabolised at 0.5 h, 30 µM values compiled below
Test: In vitro immunoproteasome digestion of 27mer peptides, MS/MS analysis
Format: in vitro ADME
Settings: immunoproteasomes isolated from T2.27mp cells; 3 nmol 27mer, 1 µg immunoproteasome, 100 µl 20 mM Hepes/KOH pH 7.8, 2 mM Mg acetate, 2 mM DTT; RP-HPLC ESI MS intensity; 30 min; read-out: substrate degraded after 30 min
Ends that are not written are not given here.
Express your answer in %, writing the number without its unit.

Sample MGKSSRREGFQPRSDTHVFSIIRRSHP [Q9VF/5D substrate] — what was its metabolised at 0.5 h, 30 µM?
24

Next:
Sample MGKSSRREGFQPRSNTHVFSIIRRSHP [Q9VF/5N substrate] — what was its metabolised at 0.5 h, 30 µM?
24
